The values you see were collected from patent US20220177587A1.

target: human PD-L1 (human) (UniProt Q9NZQ7); assay: flow cytometry, CHO cells expressing huPD-L1, vs WT CD80 ECD-Fc (R&D)
Sequence (Q9NZQ7 19-290): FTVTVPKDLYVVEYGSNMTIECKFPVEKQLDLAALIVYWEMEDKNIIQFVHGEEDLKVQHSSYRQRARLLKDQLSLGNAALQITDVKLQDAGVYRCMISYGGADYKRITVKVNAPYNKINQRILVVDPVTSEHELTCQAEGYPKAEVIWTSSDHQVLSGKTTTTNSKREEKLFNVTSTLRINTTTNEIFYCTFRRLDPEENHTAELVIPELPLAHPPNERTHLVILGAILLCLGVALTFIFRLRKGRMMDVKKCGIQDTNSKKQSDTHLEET
Use Satisfied when the recorded Fold change to WT CD80 is no lower than 3 fold; use Not satisfied when it is lower.

Binder	Qualitative Label
variant CD80 IgV-Fc E35D/M47L/A71G/L85M/F92Y (Fc fusion) VIHVTKEVKEVATLSCGHNVSVEELAQTRIYWQKDKKMVLTMMSGDLNIWPEYKNRTIFDITNNLSIVILGLRPSDEGTYECVVMKYEKDAYKREHLAEVTLSVKAD	Satisfied
variant CD80 IgV-Fc E35D/M47I/T62S/L85Q (Fc fusion) VIHVTKEVKEVATLSCGHNVSVEELAQTRIYWQKDKKMVLTMMSGDINIWPEYKNRTIFDISNNLSIVILALRPSDEGTYECVVQKYEKDAFKREHLAEVTLSVKAD	Satisfied
variant CD80 IgV-Fc E35D/D46E/M47V/N63D/L85Q (Fc fusion) VIHVTKEVKEVATLSCGHNVSVEELAQTRIYWQKDKKMVLTMMSGEVNIWPEYKNRTIFDITDNLSIVILALRPSDEGTYECVVQKYEKDAFKREHLAEVTLSVKAD	Satisfied
variant CD80 IgV-Fc R29H/E35D/M43V/M47I/I49V (Fc fusion) VIHVTKEVKEVATLSCGHNVSVEELAQTHIYWQKDKKMVLTMVSGDINVWPEYKNRTIFDITNNLSIVILALRPSDEGTYECVVLKYEKDAFKREHLAEVTLSVKAD	Not satisfied
variant CD80 IgV-Fc E35D/T41S/M43V/M47I/L70M/A71G (Fc fusion) VIHVTKEVKEVATLSCGHNVSVEELAQTRIYWQKDKKMVLSMVSGDINIWPEYKNRTIFDITNNLSIVIMGLRPSDEGTYECVVLKYEKDAFKREHLAEVTLSVKAD	Not satisfied
variant CD80 IgV-Fc E35D/D46E/M47V/V68M/D90G/K93E (Fc fusion) VIHVTKEVKEVATLSCGHNVSVEELAQTRIYWQKDKKMVLTMMSGEVNIWPEYKNRTIFDITNNLSIMILALRPSDEGTYECVVLKYEKGAFEREHLAEVTLSVKAD	Satisfied
variant CD80 IgV-Fc Q33L/E35D/M47I/N48D/A71G (Fc fusion) VIHVTKEVKEVATLSCGHNVSVEELAQTRIYWLKDKKMVLTMMSGDIDIWPEYKNRTIFDITNNLSIVILGLRPSDEGTYECVVLKYEKDAFKREHLAEVTLSVKAD	Not satisfied
variant CD80 IgV-Fc Q27H/E35D/M47I/L85Q/D90G (Fc fusion) VIHVTKEVKEVATLSCGHNVSVEELAHTRIYWQKDKKMVLTMMSGDINIWPEYKNRTIFDITNNLSIVILALRPSDEGTYECVVQKYEKGAFKREHLAEVTLSVKAD	Not satisfied
